Where these numbers come from: ChEMBL document CHEMBL1138779

Could you please report measured pEC50 for the items listed next?
- Test system: KB
- procedure.details: Dose required for reduction in camptothecin resistant human nasopharyngeal KB cancer cells after 3 days incubation
- Format: functional
- cond: 72 h, read-out: ED50 (the source's name)
Numbers only, as −log10 of the molar value.

Recorded pEC50, per entry:
[[record]]
compound = "COC(=O)[C@@H](Cc1c[nH]c2ccccc12)NC(=O)c1ccc(N[C@@H]2c3cc4c(cc3[C@@H](c3cc(OC)c(O)c(OC)c3)[C@H]3C(=O)OC[C@@H]32)OCO4)cc1"
meas_value = 6.55

[[record]]
compound = "COc1cc([C@@H]2c3cc4c(cc3[C@@H](Nc3ccc(C(=O)NCC(=O)OCc5ccccc5)cc3)[C@H]3COC(=O)[C@H]23)OCO4)cc(OC)c1O"
meas_value = 5.89

[[record]]
compound = "COc1cc([C@@H]2c3cc4c(cc3[C@@H](NC(=O)[C@@H](N)Cc3ccc(O)cc3)[C@H]3COC(=O)[C@H]23)OCO4)cc(OC)c1O"
meas_value = 4.35


Query COc1cc([C@@H]2c3cc4c(cc3[C@@H](O[C@@H]3O[C@@H]5CO[C@@H](C)O[C@H]5[C@H](O)[C@H]3O)[C@H]3COC(=O)[C@H]23)OCO4)cc(OC)c1O [ETOPOSIDE] on KB; pEC50 returned: 5.15
